Test: qHTS assay to identify small molecule agonists of the endoplasmic reticulum stress response signaling pathway - cell viability counter screen (AID 1159517); also: nearly all actives have a fitted effect of over 50% in size
Conditions: ESRE-bla HeLa viability, CellTiter-Glo luminescence, 5 h; series mostly up to 61 µM
Results filed as inconclusive are left out. Activity calls are given as the source filed them. Calls follow the shape of the full dose curve.
One label from this list, please: active, inactive

For O=Nc1ccc(NO)cc1 , which call appears in the assay record? inactive

Record: CC(C)c1cccc(C(C)C)c1N1C(=O)c2ccc(O)cc2C1=O inactive

Record: CCCCCCCCCCCCN(CCO)CCO active

Record: CC(=O)Nc1ccc(O)cc1 inactive

Record: COc1cccc(CCc2ccccc2OCC(CN(C)C)OC(=O)CCC(=O)O)c1 (stereo not given) inactive

Record: C=C1C(C)(C)[C@@]2(Cl)C(Cl)[C@]1(Cl)C(Cl)(Cl)C2(Cl)Cl (stereo not given in full) active

Record: C/C=C/C=N/NC(=O)c1ccncc1 inactive

Record: CN1[C@@H]2CC[C@H]1CC(OC(=O)C(CO)c1ccccc1)C2 (stereo not given in full) inactive

Record: CCCCCCCCCCCCCCNCCO active

Record: Nc1ccc2cc3ccc(N)cc3nc2c1 inactive

Record: Clc1ccc(C(Cn2ccnc2)OCc2c(Cl)cccc2Cl)c(Cl)c1 (stereo not given) inactive

Record: ClC/C=C\CCl inactive

Record: SCCCCCCCCS active

Record: Clc1ccc(C(c2ccccc2Cl)C(Cl)Cl)cc1 (stereo not given) active

Record: CCOC(=O)[C@@](C)(N)Cc1ccc(O)c(O)c1 inactive

Record: CNC(=S)NN inactive

Record: NCCCCCCNCCCCCCN inactive

Record: C=CCCCCCCC=C active

Record: CC(C)(C)c1cc(/C=C2\SC(=N)NC2=O)cc(C(C)(C)C)c1O active

Record: CCC1(c2cnc[nH]2)Cc2ccccc2C1 inactive

Record: N#CSCSc1nc2ccccc2s1 active

Record: CCc1cccc(C)c1 inactive

Record: COC(=O)NCCC[Si](OC)(OC)OC inactive

Record: CCNc1nc(NC(C)CC)nc(OC)n1 (stereo not given) inactive

Record: CC1CCCNC1 (stereo not given) inactive

Record: CN1[C@@H]2CC[C@@H]1CC(OC(=O)C(CO)c1ccccc1)C2 (stereo not given in full) inactive

Record: O=C(O)CC(=O)O inactive

Record: O=C1c2c(O)ccc(O)c2C(=O)c2c(NCCNCCO)ccc(NCCNCCO)c21 inactive

Record: CCN(CC)CCSC(=O)C(c1ccccc1)c1ccccc1 inactive

Record: CCCSS/C(CCO)=C(\C)N(C=O)Cc1cnc(C)nc1N inactive
